src = patent US20210238260

Can you tell me % of WT kcat/KM for the items I'm about to list?
# targetOrSystem: Factor X, P00742
# Sequence (P00742 whole entry, looked up): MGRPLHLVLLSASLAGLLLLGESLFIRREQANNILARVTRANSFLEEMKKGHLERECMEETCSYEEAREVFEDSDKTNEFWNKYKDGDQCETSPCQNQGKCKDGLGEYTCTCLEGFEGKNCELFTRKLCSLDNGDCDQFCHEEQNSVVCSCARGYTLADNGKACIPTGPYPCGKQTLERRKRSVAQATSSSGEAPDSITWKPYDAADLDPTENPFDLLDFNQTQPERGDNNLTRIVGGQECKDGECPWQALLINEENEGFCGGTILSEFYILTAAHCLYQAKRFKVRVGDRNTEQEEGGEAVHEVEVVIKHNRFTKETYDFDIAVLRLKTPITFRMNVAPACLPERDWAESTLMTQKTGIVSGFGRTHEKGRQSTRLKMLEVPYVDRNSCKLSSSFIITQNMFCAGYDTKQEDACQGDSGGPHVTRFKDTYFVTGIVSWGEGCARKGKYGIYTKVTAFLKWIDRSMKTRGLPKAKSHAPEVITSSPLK
Report the value in % with no unit label.

Look up % of WT kcat/KM of FIXa-A103N/N105S/Y155F/R318Y/R338E/R403E/E410N (mature FIX numbering) (protein) chain 1: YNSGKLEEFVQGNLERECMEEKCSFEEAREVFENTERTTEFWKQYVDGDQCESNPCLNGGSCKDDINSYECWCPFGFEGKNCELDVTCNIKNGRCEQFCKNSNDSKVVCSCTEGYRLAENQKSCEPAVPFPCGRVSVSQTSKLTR chain 2: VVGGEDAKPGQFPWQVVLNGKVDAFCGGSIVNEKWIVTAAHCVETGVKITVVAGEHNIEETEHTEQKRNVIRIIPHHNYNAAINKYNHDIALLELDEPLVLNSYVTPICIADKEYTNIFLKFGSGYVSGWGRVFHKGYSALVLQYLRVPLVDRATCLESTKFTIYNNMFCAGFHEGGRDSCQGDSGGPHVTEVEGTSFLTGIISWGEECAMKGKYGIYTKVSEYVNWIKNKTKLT and report it. 283

Look up % of WT kcat/KM of FIXa-D104N/K106S/N260S/R318Y/R338E/R403E/E410N (protein) chain 1: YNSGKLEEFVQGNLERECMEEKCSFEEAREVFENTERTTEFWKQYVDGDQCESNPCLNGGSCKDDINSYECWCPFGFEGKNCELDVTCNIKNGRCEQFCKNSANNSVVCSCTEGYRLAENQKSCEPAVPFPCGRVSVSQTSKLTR chain 2: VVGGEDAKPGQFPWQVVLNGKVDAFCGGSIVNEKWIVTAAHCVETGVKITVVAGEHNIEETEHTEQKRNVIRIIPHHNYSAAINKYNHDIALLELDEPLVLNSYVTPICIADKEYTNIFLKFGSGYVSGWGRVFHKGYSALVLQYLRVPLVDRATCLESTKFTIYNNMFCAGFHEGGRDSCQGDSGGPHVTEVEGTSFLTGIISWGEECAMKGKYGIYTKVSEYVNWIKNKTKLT and report it. 196
